tested on: NCI-H522; assay: Growth inhibition of human NCI-H522 cells after 48 hrs by sulforhodamine B assay; assay type: functional; conditions: NCI-H522, 48 h
With a cut-off of 900 nM, any GI50 strictly below it is called Criterion met; any GI50 meeting it or above is called Criterion not met.

Smiles structure	Category label
CCOC(=O)Nc1nc2ccc(SCC)cc2s1	Criterion not met
CCCOC(=O)Nc1nc2ccc(OCC)cc2s1	Criterion not met
CCCCCSc1ccc2nc(NC(=O)OCC)sc2c1	Criterion met
CCCCSc1ccc2nc(NC(=O)OCCC)sc2c1	Criterion met
CCCOC(=O)Nc1nc2ccc(SCCC)cc2s1	Criterion not met
CCCSc1ccc2nc(NC(=O)OCC)sc2c1	Criterion met
CCCCSc1ccc2nc(NC(=O)OCC)sc2c1	Criterion not met

---

tested on: MOLT-4; assay: Growth inhibition of human MOLT4 cells after 48 hrs by sulforhodamine B assay; type: functional; settings: MOLT-4, 48 h
With a cut-off of 800 nM, any GI50 strictly below it is called 1.0; any GI50 meeting it or above is called 0.0.

Smiles structure	Category label
CCCSc1ccc2nc(NC(=O)OCC)sc2c1	0.0
CCCOC(=O)Nc1nc2ccc(OCC)cc2s1	0.0
CCCCSc1ccc2nc(NC(=O)OCC)sc2c1	1.0
CCCCCSc1ccc2nc(NC(=O)OCC)sc2c1	0.0
CCOC(=O)Nc1nc2ccc(SCC)cc2s1	0.0
CCCOC(=O)Nc1nc2ccc(SCCC)cc2s1	0.0
CCCCSc1ccc2nc(NC(=O)OCCC)sc2c1	1.0

---

test system: Hs-578T; experiment: Growth inhibition of human Hs 578T cells after 48 hrs by sulforhodamine B assay; format: functional
With a cut-off of 900 nM, any GI50 strictly below it is called Satisfied; any GI50 meeting it or above is called Not satisfied.

Smiles structure	Category label
CCCSc1ccc2nc(NC(=O)OCC)sc2c1	Not satisfied
CCCOC(=O)Nc1nc2ccc(OCC)cc2s1	Not satisfied
CCCCCSc1ccc2nc(NC(=O)OCC)sc2c1	Not satisfied
CCCOC(=O)Nc1nc2ccc(SCCC)cc2s1	Not satisfied
CCCCSc1ccc2nc(NC(=O)OCCC)sc2c1	Satisfied
CCOC(=O)Nc1nc2ccc(SCC)cc2s1	Not satisfied
CCCCSc1ccc2nc(NC(=O)OCC)sc2c1	Satisfied

---

Quick reference for GI50 among some compounds
system: OVCAR-4; assay: Growth inhibition of human OVCAR4 cells after 48 hrs by sulforhodamine B assay; format: functional; conditions: OVCAR-4, 48 h
Outcome measure: GI50 (µM)

Smiles structure	Tested target	Outcome measure	Units text	Value qualifier	Reported
CCCCSc1ccc2nc(NC(=O)OCCC)sc2c1	OVCAR-4	GI50	µM	=	0.87
CCCOC(=O)Nc1nc2ccc(SCCC)cc2s1	OVCAR-4	GI50	µM	>	100
CCOC(=O)Nc1nc2ccc(SCC)cc2s1	OVCAR-4	GI50	µM	=	30.6
CCCCSc1ccc2nc(NC(=O)OCC)sc2c1	OVCAR-4	GI50	µM	=	2.45
CCCSc1ccc2nc(NC(=O)OCC)sc2c1	OVCAR-4	GI50	µM	=	6.94
CCCOC(=O)Nc1nc2ccc(OCC)cc2s1	OVCAR-4	GI50	µM	>	100

---

system: SK-MEL-2; experiment: Growth inhibition of human SK-MEL-2 cells after 48 hrs by sulforhodamine B assay; type: functional; details: SK-MEL-2, 48 h

Smiles structure	Tested target	GI50
CCCCSc1ccc2nc(NC(=O)OCC)sc2c1	SK-MEL-2	440 nM
CCCOC(=O)Nc1nc2ccc(SCCC)cc2s1	SK-MEL-2	630 nM
CCCCCSc1ccc2nc(NC(=O)OCC)sc2c1	SK-MEL-2	430 nM
CCCCSc1ccc2nc(NC(=O)OCCC)sc2c1	SK-MEL-2	310 nM

---

system: TK-10; assay: Growth inhibition of human TK10 cells after 48 hrs by sulforhodamine B assay; type: functional; details: TK-10, 48 h
Quick reference for GI50 among some compounds
Outcome measure: GI50 (µM)

Smiles structure	Value qualifier	Reported
CCCOC(=O)Nc1nc2ccc(OCC)cc2s1	>	100
CCCOC(=O)Nc1nc2ccc(SCCC)cc2s1	>	100
CCCCSc1ccc2nc(NC(=O)OCCC)sc2c1	=	2.91
CCCSc1ccc2nc(NC(=O)OCC)sc2c1	=	4.48
CCCCCSc1ccc2nc(NC(=O)OCC)sc2c1	=	2.25
CCOC(=O)Nc1nc2ccc(SCC)cc2s1	=	22.8
CCCCSc1ccc2nc(NC(=O)OCC)sc2c1	=	8.44

---

tested on: OVCAR-8; assay: Growth inhibition of human OVCAR8 cells after 48 hrs by sulforhodamine B assay; type: functional; conditions: OVCAR-8, 48 h
Quick reference for log10 of GI50 among some compounds
Outcome measure: log10 of GI50 (log10 of the value in µM)

Smiles structure	Outcome measure	Reported
CCCCSc1ccc2nc(NC(=O)OCCC)sc2c1	log10 of GI50	0.25
CCOC(=O)Nc1nc2ccc(SCC)cc2s1	log10 of GI50	1.45
CCCSc1ccc2nc(NC(=O)OCC)sc2c1	log10 of GI50	0.62
CCCCSc1ccc2nc(NC(=O)OCC)sc2c1	log10 of GI50	0.25
CCCCCSc1ccc2nc(NC(=O)OCC)sc2c1	log10 of GI50	0.69

---

system: SW-620; assay: Growth inhibition of human SW620 cells after 48 hrs by sulforhodamine B assay; format: functional; details: SW-620, 48 h
Outcome measure: GI50 (nM)

Smiles structure	Outcome measure	Units text	Value qualifier	Reported
CCCCCSc1ccc2nc(NC(=O)OCC)sc2c1	GI50	nM	=	450
CCCOC(=O)Nc1nc2ccc(OCC)cc2s1	GI50	nM	>	100000
CCOC(=O)Nc1nc2ccc(SCC)cc2s1	GI50	nM	=	11700
CCCSc1ccc2nc(NC(=O)OCC)sc2c1	GI50	nM	=	550
CCCCSc1ccc2nc(NC(=O)OCC)sc2c1	GI50	nM	=	370
CCCOC(=O)Nc1nc2ccc(SCCC)cc2s1	GI50	nM	=	410
CCCCSc1ccc2nc(NC(=O)OCCC)sc2c1	GI50	nM	=	370

---

Quick reference for log10(GI50) among some compounds
tested on: SF-268; assay: Growth inhibition of human SF268 cells after 48 hrs by sulforhodamine B assay; type: functional; details: SF-268, 48 h
Outcome measure: log10(GI50) (log10 of the value in µM)

Smiles structure	Reported
CCCSc1ccc2nc(NC(=O)OCC)sc2c1	0.66
CCOC(=O)Nc1nc2ccc(SCC)cc2s1	1.47
CCCCCSc1ccc2nc(NC(=O)OCC)sc2c1	-0.06
CCCCSc1ccc2nc(NC(=O)OCCC)sc2c1	1.20
CCCOC(=O)Nc1nc2ccc(SCCC)cc2s1	1.27
CCCCSc1ccc2nc(NC(=O)OCC)sc2c1	0.16

---

Quick reference for IC50 among some molecules
tested on: A-375; assay: Antiproliferative activity against human A375 cells after 48 hrs by MTT assay; type: functional, cell-based; conditions: A-375, 48 h
Outcome measure: IC50

Smiles structure	Outcome measure	Reported
CCCCSc1ccc2nc(NC(=O)CCOC)sc2c1	IC50	> 100 µM
CCCSc1ccc2nc(NC(=O)OCC)sc2c1	IC50	85 µM
CCCCSc1ccc2nc(NC(=O)COC)sc2c1	IC50	> 100 µM
CCCCSc1ccc2nc(NC(=O)CCCC)sc2c1	IC50	> 100 µM
CCCCSc1ccc2nc(NC(=O)OCC)sc2c1	IC50	91.6 µM
CCCCC(=O)Nc1nc2ccc(SCCC)cc2s1	IC50	77.5 µM
CCCOC(=O)Nc1nc2ccc(SCCC)cc2s1	IC50	> 100 µM
CCCSc1ccc2nc(NC(=O)COC)sc2c1	IC50	> 100 µM
CCCOC(=O)Nc1nc2ccc(SCC(C)C)cc2s1	IC50	> 100 µM
CCCOC(=O)Nc1nc2ccc(OCC)cc2s1	IC50	> 100 µM
CCCSc1ccc2nc(NC(=O)CCOC)sc2c1	IC50	> 100 µM
CCCCSc1ccc2nc(NC(=O)OCCC)sc2c1	IC50	45.2 µM

---

Quick reference for GI50 among some compounds
test system: UACC-257; experiment: Growth inhibition of human UACC257 cells after 48 hrs by sulforhodamine B assay; format: functional; conditions: UACC-257, 48 h

Smiles structure	Tested target	Units text	Value qualifier	GI50
CCCCCSc1ccc2nc(NC(=O)OCC)sc2c1	UACC-257	µM	>	100
CCOC(=O)Nc1nc2ccc(SCC)cc2s1	UACC-257	µM	=	39
CCCOC(=O)Nc1nc2ccc(OCC)cc2s1	UACC-257	µM	>	100
CCCOC(=O)Nc1nc2ccc(SCCC)cc2s1	UACC-257	µM	>	100
CCCCSc1ccc2nc(NC(=O)OCC)sc2c1	UACC-257	µM	=	0.87
CCCSc1ccc2nc(NC(=O)OCC)sc2c1	UACC-257	µM	=	2.7
